Hello, the source for this data is PubChem BioAssay (Tox21), in case you need it.

Assay: qHTS assay to identify small molecule antagonists of the constitutive androstane receptor (CAR) signaling pathway - cell viability counter screen (AID 1224837); further: nearly all actives have a fitted effect of over 45% in size
Details: HepG2-CYP2B6-hCAR viability, CellTiter-Fluor, 23 h, co-treated with 50 nM CITCO; series mostly up to 92.4 µM
Results filed as inconclusive are left out. Activity calls are given as the source filed them. The call rests on the fitted dose curve; in most records, active means well fitted cell-killing curve with a large enough effect in the repeat runs; inconclusive means weak or mixed curves, or effect the other way; inactive means flat fitted curve, though single readings scatter.
Return exactly one item of yes = active, no = inactive

COMPOUND	GROUP
CCCC(C)CCC(C)=O (stereo unspecified)	no
CCCSS/C(CCO)=C(\C)N(C=O)Cc1cnc(C)nc1N	no
CN(C)CCN1CCOCC1	no
CC(=O)c1ccccc1N	no
CCN(CC)CCNc1ccc(CO)c2sc3ccccc3c(=O)c12	yes

Per the records of this test, what outcome belongs to CCCCCCCCCCCCN(CCO)CCO ?
yes

Write down the call the test reported for this compound. Item: CCC1(c2cnc[nH]2)Cc2ccccc2C1
no

For CS(C)(=O)=O , what call appears in the results of this test?
no

I would be grateful if you could indicate the recorded call for Clc1cccnc1 .
no

Record request — test call for c1cc[nH]c1
no

Per the assay record, what outcome was assigned to CCNc1nc(NC(C)CC)nc(OC)n1 (stereo unspecified) ?
no

Assay outcome for C#CC(O)CCC (stereo unspecified) : what was it?
no

Tell me the recorded outcome of this test for CC1CCCNC1 (stereo unspecified) .
no

====

Test: qHTS assay to identify small molecule antagonists of the farnesoid-X-receptor (FXR) signaling pathway - cell viability counter screen (AID 743221); further: nearly all actives have a fitted effect of over 50% in size
Settings: FXR-bla HEK293T viability, CellTiter-Glo luminescence, 16 h; series mostly up to 62.6 µM
Results filed as inconclusive are left out. Active and inactive are the calls of the source. Calls follow the shape of the dose curve; as a rule, active = well fitted cell-killing curve with a large enough effect in the repeat runs (not every such curve was filed as active); inconclusive = weak or mixed curves, or effect the other way; inactive = no such curve, though single readings can be large or run the other way.
Pick from active, inactive when you respond.

Answer briefly: the call reported for CCN1CCN(c2cc(-c3ccc(F)cc3)c3c(n2)CCCCCC3)CC1 in this assay.
inactive

Query: recorded result category for Cc1cccc(C)c1NC(=O)CN1CCN(CCCC(c2ccc(F)cc2)c2ccc(F)cc2)CC1 in this test
active

Kindly provide the recorded test outcome for the following molecule: CCCCCCC(C)OC(=O)COc1nc(F)c(Cl)c(N)c1Cl (configuration not stated)
inactive

====

Target: Retinoic acid receptor RXR-alpha (Homo sapiens) (UniProt P19793)
Sequence (P19793 whole entry, looked up): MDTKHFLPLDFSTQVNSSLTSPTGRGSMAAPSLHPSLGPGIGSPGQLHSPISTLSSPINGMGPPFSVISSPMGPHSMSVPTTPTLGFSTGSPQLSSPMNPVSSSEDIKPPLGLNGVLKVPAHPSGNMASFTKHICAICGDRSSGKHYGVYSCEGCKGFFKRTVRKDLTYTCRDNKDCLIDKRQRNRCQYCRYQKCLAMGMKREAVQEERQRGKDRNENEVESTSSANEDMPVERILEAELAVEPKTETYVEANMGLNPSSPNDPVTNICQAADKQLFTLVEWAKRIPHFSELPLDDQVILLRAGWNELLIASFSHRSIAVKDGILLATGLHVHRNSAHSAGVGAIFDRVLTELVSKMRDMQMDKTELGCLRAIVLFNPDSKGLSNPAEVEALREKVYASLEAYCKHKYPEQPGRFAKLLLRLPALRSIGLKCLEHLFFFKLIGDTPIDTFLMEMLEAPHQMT
Experiment: qHTS assay to identify small molecule agonists of the RXR signaling pathway (AID 1159527); further: nearly all actives have a fitted effect of over 35% in size
Settings: HEK293T RXRa-UAS-bla, beta-lactamase ratio, 16 h; series mostly up to 76.8 µM
Records with an inconclusive call do not appear. Active and inactive are the calls of the source. Calls follow the shape of the full dose curve.
// one of active, inactive, no free text

Some solved cases for reference:
COMPOUND	GROUP
OCCN1CN(CCO)CN(CCO)C1	inactive
NC(=O)c1nc(-c2cccc(-c3cc(F)ccc3OCC(F)(F)C(F)(F)F)c2)n[nH]1	inactive
C=C(C)CCCC	inactive
CCc1c(Br)c(Br)c(Br)c(Br)c1Br	active
Nc1ncnc2c1ncn2[C@@H]1O[C@H](COP(=O)(O)O)[C@@H](O)[C@H]1O	inactive

Which result was noted for this compound in the test: CCCCOC(=O)C(C)CC (stereo not given)
inactive

Any idea what this test logged for CCCCN(C)C ?
inactive

Which outcome was entered for the compound CCOC(=O)CN in this test?
inactive

I'd appreciate the recorded outcome for CCOC(=O)COc1ccc(C)cc1 from this test.
inactive

What is the recorded call for this compound in the test? CCC(C)c1ccccc1 (stereo not given)
inactive

====

Test: qHTS assay to identify small molecule agonists of H2AX - cell viability counter screen (AID 1224847);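 further: wild-type CHO-K1 cells; top concentration of the series differs between compounds; nearly all actives have a fitted effect of over 30% in size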
Conditions: CHO-K1 viability, CellTiter-Glo luminescence, 3 h; series mostly up to 154 µM
Results filed as inconclusive are left out. Activity calls are given as the source filed them. Calls come from the whole dose curve.
Use one of these outcomes when replying: yes = active, no = inactive

Write down the call the test reported for this molecule. Item: CC(C)=C1CC[C@@H](C)CC1=O
no

I would be grateful if you could indicate the recorded call for Oc1cc2ccccc2cc1O .
no

====

Test: qHTS assay for small molecule agonists of the p53 signaling pathway - cell viability (AID 651633); further: nearly all actives have a fitted effect of over 30% in size
Details: p53RE-bla HCT-116 viability, ATP luminescence, 16 h; series mostly up to 83.3 µM
Records with an inconclusive call do not appear. Activity calls are given as the source filed them. Calls follow the shape of the full dose curve.
# output must be one of y = active, n = inactive

Worked examples follow.
MOLECULE	GROUP
Oc1ccc(-c2ccccc2)c(Cl)c1	y
c1ccc(Nc2cccc3ccccc23)cc1	n

Switching to the query record.
Test call for this molecule, please: CCN(CC)CCOC(=O)C1(C2CCCCC2)CCCCC1
n

====

Test: qHTS assay to identify small molecule antagonists of the estrogen related receptor signaling pathway with the pleiotropic PPARgamma coactivator (PGC) from Tox21 10K library (AID 1224841); further: actives are mostly falling curves and most rising ones were filed inactive; nearly all actives have a fitted effect of over 50% in size
Details: PGC/ERR reporter cell line, ONE-Glo luciferase, 18 h; series mostly up to 92.4 µM
Inconclusive results are not listed. Calls of active or inactive are those of the source. No rule for the calls is given here.
Choose the fitting class; nothing outside true = active, false = inactive is accepted.

Each compound tested received a call. Report the one for CN1CCN(C2Cc3ccccc3Sc3ccc(Cl)cc32)CC1 (configuration not stated) .
false

I would be grateful if you could indicate the recorded call for CCNc1nc(NC(C)CC)nc(OC)n1 (configuration not stated) .
false

Could you please tell me the result logged for CCOC(OCC)C(=O)c1ccccc1 in this assay?
false

Could you please tell me the result logged for CCCCCCCC(=O)OCC in this assay?
false

Hi, sorry to bother you, what did the test record for COc1ccccc1OCCNCC(O)COc1cccc2[nH]c3ccccc3c12 (configuration not stated) ?
true

Hi, do you know how O=C1OC(=O)c2cccc3cccc1c23 came out in this test?
false

State the result this test recorded for CCOC(=O)CC(C)O (configuration not stated) .
false

====

Assay: qHTS assay to identify small molecule agonists of the TGF-beta/Smad signaling pathway - cell viability counter screen (AID 1346829); further: top concentration of the series differs between compounds; nearly all actives have a fitted effect of over 45% in size
Details: SBE-bla HEK293T viability, CellTiter-Glo luminescence, 5 h; series mostly up to 76.8 µM
Results filed as inconclusive are left out. The source made the active and inactive calls. Calls come from the whole dose curve; as a rule, active = well fitted cell-killing curve with a large enough effect in the repeat runs; inconclusive = weak or mixed curves, or effect the other way; inactive = flat fitted curve, though single readings scatter.
QUANTITY NAME: activity change, negative = cytotoxicity

COMPOUND	QUANTITY NAME	RECORDED VALUE
O=CC1CC1	activity change, negative = cytotoxicity	inactive
CC1(C)COCN1	activity change, negative = cytotoxicity	inactive
Cn1cnc2ncnc(N)c21	activity change, negative = cytotoxicity	inactive
CC(=O)C=O	activity change, negative = cytotoxicity	inactive
COc1cccc(OC)c1O	activity change, negative = cytotoxicity	inactive

Documented activity change, negative = cytotoxicity of NC1(c2ccc(-c3nc4ccn5c(=O)[nH]nc5c4cc3-c3ccccc3)cc2)CCC1 : inactive

Data point: Cn1cccc1 ; activity change, negative = cytotoxicity = inactive

Lab note: measured activity change, negative = cytotoxicity of CCCCCCCCCCCCCc1ccccc1 was inactive

Entry CC(=O)OC1CCCCC1 — recorded activity change, negative = cytotoxicity = inactive

response.value for CC(C)(C)c1n[nH]c(=O)n(N)c1=O (field: activity change, negative = cytotoxicity) = inactive

====

Molecular target: Cytochrome P450 2C9 (Homo sapiens)
Experiment: Cytochrome P450 Family 2 Subfamily C Member 9 (CYP2C9) small molecule antagonists: luciferase reporter qHTS assay (AID 1671198); further: nearly all actives have a fitted effect of over 50% in size
Details: P450-Glo CYP2C9 enzyme assay, luciferin luminescence; series mostly up to 115 µM
Description: U.S. Tox21 Program National Center for Advancing Translational Sciences [NCATS] U.S. Environmental Protection Agency [EPA] National Institutes of Environmental Health Sciences [NIEHS] National Toxicology Program [NTP] U.S. Food and Drug Administration [FDA] […] The luciferin products formed are detected with a luciferin detection reagent, and the amount of light produced is proportional to CYP activity. […]
Records with an inconclusive call do not appear. Active and inactive are the calls of the source. The call rests on the fitted dose curve; in most records, active means well fitted inhibition curve with a large enough effect in the repeat runs; inconclusive means weak or mixed curves; inactive means no such curve, though single readings can be large or run the other way.
In this exercise, the only acceptable responses are yes (1) for active, no (0) for inactive

Consider the following illustrative entries.
COMPOUND	ASSAYED TARGET	GROUP
CCOC(/C=C(\C)CCC=C(C)C)OCC	Cytochrome P450 2C9 (Homo sapiens)	no (0)
CCC(C)(C)c1cc(O)c(C(C)(C)CC)cc1O	Cytochrome P450 2C9 (Homo sapiens)	yes (1)
O[C@@H](c1cc(C(F)(F)F)nc2c(C(F)(F)F)cccc12)[C@H]1CCCCN1	Cytochrome P450 2C9 (Homo sapiens)	no (0)

Look up the recorded call for c1cc[nH]c1 in this test.
no (0)

Recorded call for SCCCCCCCCS ?
no (0)

====

Experiment: qHTS assay for small molecules that induce genotoxicity in human embryonic kidney cells expressing luciferase-tagged ATAD5 - cell viability (AID 651634); further: nearly all actives have a fitted effect of over 25% in size
Conditions: HEK293T ATAD5-luc cells viability, CellTiter-Fluor, 15.5 h; series mostly up to 83.3 µM
Results filed as inconclusive are left out. Activity calls are given as the source filed them. Calls come from the whole dose curve.
Return exactly one item of T (active), F (inactive)

The examples below pair each entry with its known result.
MOLECULE	GROUP
CCN=C1C=CC(=C(c2ccc(N(CC)CC)cc2)c2ccc(N(CC)CC)cc2)c2ccccc21	T
CN1CCN(C2Cc3ccccc3Sc3ccc(Cl)cc32)CC1 (stereo unspecified)	F
Cc1c(C(=O)O)cccc1[N+](=O)[O-]	F
O=C(c1ccccc1)c1cc(Cl)ccc1O	F
CCCCCCCCCCCCCC[n+]1ccccc1	F

I'd appreciate the recorded outcome for O=C(O)Cc1ccc(OCCNC[C@H](O)c2ccccc2)cc1 from this test.
F
